Target: Indoleamine 2,3-dioxygenase 1 (Homo sapiens, UniProt P14902)
Sequence (P14902 whole entry): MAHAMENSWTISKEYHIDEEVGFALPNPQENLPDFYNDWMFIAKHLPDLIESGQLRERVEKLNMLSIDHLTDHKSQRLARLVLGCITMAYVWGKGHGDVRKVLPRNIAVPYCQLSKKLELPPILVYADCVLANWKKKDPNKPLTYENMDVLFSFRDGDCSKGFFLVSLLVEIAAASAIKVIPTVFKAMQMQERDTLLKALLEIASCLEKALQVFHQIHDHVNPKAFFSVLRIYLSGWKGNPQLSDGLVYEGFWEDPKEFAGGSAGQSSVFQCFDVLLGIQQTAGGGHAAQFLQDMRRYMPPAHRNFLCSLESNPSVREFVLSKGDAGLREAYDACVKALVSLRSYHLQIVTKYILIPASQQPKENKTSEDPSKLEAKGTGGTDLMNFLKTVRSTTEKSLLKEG
Assay: Inhibition of human IDO1
measured-parameter: pIC50
// returns pIC50 (minus log10 of molar concentration), number only

Test system Indoleamine 2,3-dioxygenase 1 (Homo sapiens, UniProt P14902); read-out pIC50; what value for `N#Cc1ccc(NC(=O)Nc2ccc(S(=O)(=O)NNc3ccc(Br)cc3)cc2)cc1` ?
6.70

----------
Target: Indoleamine 2,3-dioxygenase 1 (Homo sapiens)
Experiment: Inhibition of human IDO1 expressed in Escherichia coli using L-tryptophan as substrate incubated for 30 mins by methylene blue dye based microplate reader analysis
measured-parameter: pIC50
// returns pIC50 (minus log10 of molar concentration), number only

INSERT INTO measurements (smiles_repr, readout_number) VALUES
  ('COC1=CC(=O)c2c(c(CO)c(C)n2C)C1=O', 5.00),
  ('COC1=CC(=O)c2c(c(CO)nn2C)C1=O', 6.00),
  ('COC1=CC(=O)c2sc(C)c(CO)c2C1=O', 6.00),
  ('COC1=CC(=O)c2c(nc(COc3ccc([N+](=O)[O-])cc3)n2C)C1=O', 7.00),
  ('COC1=CC(=O)c2c(oc(C)c2CO)C1=O', 6.30);

Turning now to a further molecule:
# query: pIC50 of entry `COC(=O)c1c(C)oc2c1C(=O)C(OC)=CC2=O`
5.14

----------
Target: Indoleamine 2,3-dioxygenase 1 (Homo sapiens, UniProt P14902)
Assay: Inhibition of human IDO1 using L-tryptophan as substrate by methylene blue dye based spectrometric method
Quick reference: IC50 of the listed items.
Only the number, expressed in µM, is required.

# annotated cases, reported IC50 shown
INSERT INTO results (smiles_repr, measured_parameter, readout_number) VALUES
  ('O=C(NNc1ccccc1)c1n[nH]c2ccccc12', 'IC50', 0.72),
  ('c1ccc(-c2[nH]nc3ccccc23)cc1', 'IC50', 19.6),
  ('Clc1ccc(-c2n[nH]c3ccccc23)cc1Cl', 'IC50', 5.46),
  ('c1cncc(-c2n[nH]c3ccccc23)c1', 'IC50', 9.52);

# query: IC50 of entry `Cc1ccc(S(=O)(=O)NNC(=O)c2n[nH]c3ccccc23)cc1`
17

----------
Molecular target: Indoleamine 2,3-dioxygenase 1 (Mus musculus)
Sequence (P28776 whole entry): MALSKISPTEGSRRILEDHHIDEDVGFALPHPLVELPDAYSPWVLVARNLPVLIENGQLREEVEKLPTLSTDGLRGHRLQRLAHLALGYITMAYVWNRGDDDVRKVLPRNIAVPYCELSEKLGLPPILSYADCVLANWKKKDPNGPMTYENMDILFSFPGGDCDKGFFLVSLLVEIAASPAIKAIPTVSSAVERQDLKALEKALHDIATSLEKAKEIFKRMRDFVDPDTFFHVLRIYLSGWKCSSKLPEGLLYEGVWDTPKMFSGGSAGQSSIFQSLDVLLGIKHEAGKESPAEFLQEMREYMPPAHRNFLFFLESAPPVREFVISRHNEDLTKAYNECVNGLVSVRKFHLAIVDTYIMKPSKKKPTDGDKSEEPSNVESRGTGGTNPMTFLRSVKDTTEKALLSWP
Test: Inhibition of mouse IDO1 using L-tryptophan as substrate by methylene blue dye based analysis
Quick reference: log10 IC50 of the listed items.
Annotation: log10 of IC50, µM basis.

INSERT INTO assay_data (smiles_repr, target_under_test, measured_parameter, readout_number) VALUES
  ('c1ccc(Nc2ccc3c[n+]4ccccc4cc3c2)cc1', 'Indoleamine 2,3-dioxygenase 1 (Mus musculus)', 'log10 IC50', -0.25),
  ('Clc1ccc(Nc2ccc3c[n+]4ccccc4cc3c2)cc1', 'Indoleamine 2,3-dioxygenase 1 (Mus musculus)', 'log10 IC50', -0.29),
  ('Fc1ccc(Nc2ccc3c[n+]4ccccc4cc3c2)cc1', 'Indoleamine 2,3-dioxygenase 1 (Mus musculus)', 'log10 IC50', -0.28),
  ('Cc1ccc(Nc2ccc3c[n+]4ccccc4cc3c2)cc1', 'Indoleamine 2,3-dioxygenase 1 (Mus musculus)', 'log10 IC50', 1.23);

Turning now to a further compound:
# query: log10 IC50 of entry `Clc1cccc(Nc2ccc3c[n+]4ccccc4cc3c2)c1`
1.60

----------
Biological target: Indoleamine 2,3-dioxygenase 1 (Homo sapiens)
Experiment: Inhibition of IDO1 in human A549 cells by ELISA assay
Assay type: cell-based
measured-parameter: IC50
Record the result as a number with its unit.

Test system Indoleamine 2,3-dioxygenase 1 (Homo sapiens); read-out IC50; what value for `CC(=O)NCCc1c(C(=O)c2ccccc2[N+](=O)[O-])[nH]c2ccc(Cl)cc12` ?
0.74 µM
